molecular target: JAK2 (Homo sapiens (Human), UniProt O60674); assay: Inhibition of enzymatic JAK2 kinase activity (TR-FRET); format: biochemical; conditions: read-out: IC50 JAK
Sequence (O60674 808-1132): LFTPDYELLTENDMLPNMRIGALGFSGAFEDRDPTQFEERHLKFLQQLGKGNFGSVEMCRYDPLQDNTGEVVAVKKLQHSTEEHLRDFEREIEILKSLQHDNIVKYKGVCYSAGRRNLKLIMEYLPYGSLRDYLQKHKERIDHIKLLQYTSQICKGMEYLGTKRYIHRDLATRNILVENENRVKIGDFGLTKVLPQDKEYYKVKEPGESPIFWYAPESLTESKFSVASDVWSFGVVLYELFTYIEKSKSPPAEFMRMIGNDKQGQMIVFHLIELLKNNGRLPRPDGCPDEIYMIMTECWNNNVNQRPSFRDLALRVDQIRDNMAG
pIC50: −log10 of the molar value. Counter-ions that a name gives are not always drawn.
quantity: pIC50

Worked cases, pIC50 given:
Input line: Fill blank: measured pIC50 of the molecule O=c1[nH]ncc2nc(N3CCCCCC3)nc(Nc3ccc(CN4CCNCC4)cc3)c12 [Example 52, hydrochloride] is ____.
Output line: > 8.00

Input line: Entry N#CCN1CCN(c2ccc(Nc3nc(N4CCCCCC4)nc4cn[nH]c(=O)c34)cc2)CC1 please
Output line: > 8.00

Input line: O=C(O)CC1CCC(c2ccc(Nc3nc(N4CCCCCC4)nc4cn[nH]c(=O)c34)cc2)CC1 (stereo not shown) , same question.
Output line: > 7.30

Input line: Would you mind doing O=c1[nH]ncc2nc(N3CCCCCC3)nc(Nc3ccc(N4CCN(CCF)CC4)cc3)c12 as well?
Output line: > 8.00

New cases:
Input line: Please look up its pIC50: O=c1[nH]ncc2nc(N3CCCCCC3)nc(Nc3ccc(OCCN4CCN(CCO)CC4)cc3)c12
Output line: > 7.30

Input line: Thanks! And O=c1[nH]ncc2nc(N3CCCCCC3)nc(Nc3ccc(N4CCOCC4)cc3)c12 ?
Output line: > 8.00

Input line: Now the molecule NCCOc1ccc(Nc2nc(N3CCCCCC3)nc3cn[nH]c(=O)c23)cc1
Output line: > 8.00
